pIC50: −log10 of the molar value.
Record set of pIC50 for target or system wildtype HIV-1 protease (Human immunodeficiency virus type 1 group M subtype B).

| compound | pIC50 |
| --- | --- |
| N[C@H](C(=O)Nc1cncc(F)c1CC[C@@H]1CNCC2(CCCCC2)O1)C(c1ccccc1)c1ccccc1 | 6.54 |
| N[C@H](C(=O)Nc1cncc(F)c1CC[C@@H]1CNC[C@@H](COC(=O)NCCc2ccccc2)O1)C(c1ccc(F)cc1)c1ccc(F)cc1 | 8.06 |
| N#Cc1cccc(SC[C@@H]2CNC[C@@H](CCc3c(F)cncc3NC(=O)[C@@H](N)C(c3ccc(F)cc3)c3ccc(F)cc3)O2)c1 | 9.33 |
| COC(=O)N[C@H](C(=O)Nc1ccccc1CC[C@@H]1CNC[C@@H](CSc2ccc(Cl)cc2)O1)[C@H](c1ccccc1)c1ccncc1 | 9.52 |

* * *

study.system: wildtype HIV-1 protease (Human immunodeficiency virus type 1 group M subtype B, UniProt P04585)
Construct: preincubated with the HIV-1 protease (wild type) enzyme in assay buffer; made in house; host or cells: Escherichia coli
method: Assay for inhibition of microbial expressed HIV protease (Pepcleav)
Type: biochemical
assay.setup: wild type HIV-1 protease 20 pM, peptide substrate 400 micromolar, pH 5.5; mean of at least two independent experiments
pIC50: −log10 of the molar value.

| compound | pIC50 |
| --- | --- |
| N[C@@H](C(=O)Nc1cncc(F)c1CC[C@@H]1CNC[C@@H](CSc2ccc(Cl)cc2)O1)C(c1ccc(F)cc1)c1ccc(F)cc1 | 8.05 |
| COC(=O)N[C@H](C(=O)Nc1ccccc1CC[C@@H]1CNC[C@@H](COc2ccc(-n3ccnc3)cc2)O1)C(c1ccccc1)c1ccccc1 [Example 14] | 7.49 |
| COC(=O)N[C@H](C(=O)NCCCCC1CNC[C@@H](CS(=O)(=O)c2ccc(N)cc2)O1)C(c1ccccc1)c1ccccc1 (stereo partly drawn) | 6.35 |
| COC(=O)N[C@H](C(=O)Nc1ccccc1CCC1CNC[C@@H](CS(=O)(=O)c2ccc3ccccc3c2)O1)C(c1ccccc1)c1ccccc1 (stereo partly drawn) | 7.21 |
| COC(=O)N[C@H](C(=O)Nc1ccccc1CC[C@@H]1CNC[C@@H](COc2ccc(-c3ccncc3)cc2)O1)C(c1ccccc1)c1ccccc1 | 8.40 |
| COC(=O)N[C@H](C(=O)Nc1c(CC[C@@H]2CNC[C@@H](CSc3ccc(Cl)cc3)O2)cc[nH]c1=O)C(c1ccccc1)c1ccccc1 | 10.30 |
| COC(=O)N[C@H](C(=O)Nc1ccccc1CC[C@@H]1CNC[C@@H](CSc2ccc(Cl)cc2C)O1)C(c1ccccc1)c1ccccc1 | 8.89 |
| COC(=O)N[C@H](C(=O)Nc1ccccc1CC[C@@H]1CNC[C@@H](CSc2ccc(Cl)cc2)O1)[C@@H](c1ccccc1)c1cccnc1 | 9.70 |
| COC(=O)N[C@H](C(=O)Nc1ccccc1CC[C@@H]1CNC[C@@H](COCc2ccc(Cl)cc2)O1)C(c1ccccc1)c1ccccc1 | 7.21 |
| COC(=O)N[C@H](C(=O)Nc1ccccc1CC[C@@H]1CNC[C@@H](COc2cccc(F)c2)O1)C(c1ccccc1)c1ccccc1 | 7.92 |
| COC(=O)N[C@H](C(=O)Nc1cccnc1CC[C@@H]1CNC[C@@H](CSc2ncccc2Cl)O1)C(c1ccccc1)c1ccccc1 | 7.24 |
| COC(=O)N[C@H](C(=O)Nc1ccccc1CC[C@@H]1CNC[C@@H](COc2ccc3c(c2)NCCC3)O1)C(c1ccccc1)c1ccccc1 | 7.89 |

* * *

study.system: wildtype HIV-1 protease (Human immunodeficiency virus type 1 group M subtype B, UniProt P04585)
pIC50: −log10 of the molar value.

| compound | pIC50 |
| --- | --- |
| CC(C)COC[C@@H]1CNC[C@@H](CCc2c(F)cncc2NC(=O)[C@@H](N)C(c2ccc(F)cc2)c2ccc(F)cc2)O1 | 6.37 |
| COC(=O)N[C@H](C(=O)Nc1c(CC[C@@H]2CNC[C@@H](COc3ccc(C#N)cc3)O2)cc[nH]c1=O)C(c1ccccc1)c1ccccc1 | 8.39 |
| COC(=O)N[C@H](C(=O)Nc1ccccc1CC[C@@H]1CNC[C@@H](CSc2ccc(Cl)cc2)O1)[C@@H](c1ccccc1)c1c[nH]c2ncccc12 | 9.96 |
| COC(=O)N[C@H](C(=O)Nc1ccccc1CC[C@@H]1CNC[C@@H](COc2cccnc2C)O1)C(c1ccccc1)c1ccccc1 | 6.89 |
| COC(=O)N[C@H](C(=O)Nn1c(CC[C@@H]2CNC[C@@H](COc3ccc(C#N)cc3)O2)cccc1=O)C(c1ccccc1)c1ccccc1 | 7.27 |
| COC(=O)N[C@H](C(=O)Nc1ccccc1CC[C@@H]1CNC[C@@H](COc2ccc(-n3cccn3)cc2)O1)C(c1ccccc1)c1ccccc1 | 8.33 |

* * *

study.system: wildtype HIV-1 protease (Human immunodeficiency virus type 1 group M subtype B, UniProt P04585)

| molecule | IC50 [nM] |
| --- | --- |
| COC(=O)N[C@H](C(=O)Nc1ccccc1CC[C@@H]1CNC[C@@H](COc2cccc3c2CCC3)O1)C(c1ccccc1)c1ccccc1 | 36 |
| COC(=O)N[C@H](C(=O)Nc1ccccc1CC[C@@H]1CNC[C@@H](CSc2cccc(Br)c2)O1)C(c1ccccc1)c1ccccc1 | 2.9 |
| COC(=O)N[C@H](C(=O)Nc1ccccc1CC[C@@H]1CNC[C@@H](CSc2cccc(S(C)(=O)=O)c2)O1)C(c1ccccc1)c1ccccc1 | 0.8 |
| COC(=O)N[C@H](C(=O)Nc1ccccc1CCC1CNC[C@@H](COc2ccc(Cl)cc2)O1)C(c1ccccc1)c1ccccc1 (stereo partly shown) | 58 |

* * *

study.system: wildtype HIV-1 protease (Human immunodeficiency virus type 1 group M subtype B, UniProt P04585)
measured.property: IC50 (nM)

| compound | result |
| --- | --- |
| C#C[C@@H]1CNC[C@@H](CCc2ccccc2NC(=O)[C@@H](NC(=O)OC)C(c2ccccc2)c2ccccc2)O1 | 580 |
| COC(=O)N[C@H](C(=O)Nc1ccccc1CC[C@@H]1CNC[C@@H](COc2ccc(-n3ccnc3)cc2)O1)C(c1ccccc1)c1ccccc1 [Example 108] | 37 |
| COC(=O)N[C@H](C(=O)Nc1ccccc1CC[C@@H]1CNC[C@@H](COc2ccc(-n3cncn3)cc2)O1)C(c1ccccc1)c1ccccc1 | 12 |
| COC(=O)N[C@H](C(=O)Nc1ccccc1CC[C@@H]1CNC[C@@H](C[S+]([O-])c2ccc(Cl)cc2)O1)C(c1ccccc1)c1ccccc1 (stereo partly shown) | 280 |
| COC(=O)N[C@H](C(=O)Nc1ccccc1CC[C@@H]1CNC[C@@H](CCOc2ccc(C#N)cc2)O1)C(c1ccccc1)c1ccccc1 | 28 |
| COC(=O)N[C@H](C(=O)Nc1ccccc1CC[C@@H]1CNC[C@@H](CSc2ccc(Br)cc2F)O1)C(c1ccccc1)c1ccccc1 | 0.53 |
| COC(=O)N[C@H](C(=O)Nc1ccccc1CC[C@@H]1CNC[C@@H](COc2cccc3cn[nH]c23)O1)C(c1ccccc1)c1ccccc1 | 26 |

* * *

Attribute: IC50
study.system: wildtype HIV-1 protease (Human immunodeficiency virus type 1 group M subtype B)
Construct: preincubated with the HIV-1 protease (wild type) enzyme in assay buffer; made in house; host or cells: Escherichia coli
method: Assay for inhibition of microbial expressed HIV protease (Pepcleav)
Format: biochemical
assay.setup: wild type HIV-1 protease 20 pM, peptide substrate 400 micromolar, pH 5.5; mean of at least two independent experiments

| compound | endpoint.unit | IC50 |
| --- | --- | --- |
| N[C@H](C(=O)Nc1cccc(F)c1CC[C@@H]1CNC[C@@H](CSc2ccc(Cl)cc2)O1)C(c1ccc(F)cc1)c1ccc(F)cc1 | nM | 5.2 |
| COC(=O)N[C@H](C(=O)Nc1ccccc1CC[C@@H]1CNC[C@@H](COc2ccc(C#N)cc2)O1)C(c1ccccc1)c1ccccc1 | nM | 21 |
| COC(=O)N[C@H](C(=O)Nc1ccccc1CC[C@@H]1CNC[C@@H](CSc2ccc(Cl)cc2)O1)C(c1ccccc1)c1ccccc1 | nM | 2 |
| N[C@H](C(=O)Nc1c(CC[C@@H]2CNC[C@@H](CSc3ccc(Cl)cc3)O2)cc[nH]c1=O)C(c1ccccc1)c1ccccc1 | nM | 0.04 |
| COC(=O)N[C@H](C(=O)Nc1ncccc1CC[C@@H]1CNC[C@@H](COc2ccc(C#N)cc2)O1)C(c1ccccc1)c1ccccc1 | nM | 88 |
| COC(=O)N[C@H](C(=O)Nc1ccccc1CC[C@@H]1CNC[C@@H](COc2ccc(Br)cc2N)O1)C(c1ccccc1)c1ccccc1 | nM | 21 |
| N[C@H](C(=O)Nc1cncc(F)c1CC[C@@H]1CNC[C@@H](CSc2ccc(Cl)cc2)O1)C(c1ccc(F)cc1)c1ccc(F)cc1 | nM | 0.28 |
| COC(=O)N[C@H](C(=O)Nc1ccccc1CC[C@@H]1CNC[C@@H](CSc2nnc(Cc3csc(C)n3)o2)O1)C(c1ccccc1)c1ccccc1 | nM | 8 |
| CS(=O)(=O)N1CCC2(CC1)CNC[C@@H](CCc1c(F)cccc1NC(=O)[C@@H](N)[C@@H](c1ccc(Cl)cc1)c1cc(F)cc(F)c1)O2 | nM | 11 |

Hey, just so you know, these numbers are from patent US9994587B2.
